Reported melting point by item:

Consider the following illustrative entries.
Req: Return reported melting point. Input molecule: CCCNC(=O)C(C)Cc1ccc2ccn(Cc3ccc(C(=O)NS(=O)(=O)c4ccccc4C)cc3OC)c2c1 (stereo not drawn)
Resp: 192 to 194 °C

Req: Give the reported value of melting point for this record: CC(C(O)CCC(C)(C)C)C1CCC2C3CC=C4CC(O)CCC4(C)C3CCC12C (stereo not drawn)
Resp: 191 to 193 °C

Now let's try a different one.
Req: Input O=C1c2ccccc2C(=O)c2cc(OCC3CO3)ccc21 (stereo not drawn) , output reported melting point.
Resp: 162 to 167 °C

###

REPORTED_METRIC: melting point

Use these answered entries as a reference point.
Req: Output melting point of O=C(NC(Cc1ccc(OCc2ccccc2)cc1)C(=O)O)c1cc2ccc(-c3ccc(Cl)cc3)cc2[nH]1 (stereo not given)
Resp: 202 to 204 °C

Req: Indicate its recorded melting point; the compound in question is CC(C)(C)c1ccc(OCC(=O)NCc2ccc(NS(C)(=O)=O)cc2)cc1
Resp: 163 °C

Req: Give me measured melting point, please, for this compound: O=CN(O)C(CS(=O)(=O)c1ccc(-c2ccc(C(F)(F)F)cc2)cc1)c1ccc2c(c1)OCO2 (stereo not given)
Resp: 160 °C

Req: Dear colleague, please send me the reported melting point for O[C@@H]1CN(C[C@H](O)c2ccccc2)CC[C@H]1CCOC(c1ccccc1)c1ccccc1 when you can.
Resp: 84 to 86 °C

Req: Please indicate melting point recorded for COCC(=O)Nc1cccc2c1C1(COc3cc4c(cc31)OCCO4)C(=O)N2C (stereo not given)
Resp: 237 to 239 °C

Req: Identify melting point associated with the compound COc1cc(Nc2nccc(-c3ccc(N4CCCNCC4)nc3)n2)cc(OC)c1OC
Resp: 144 to 145 °C

Req: Note melting point for the compound shown: CCc1nn(-c2ccccc2)nc1C(C#N)C(=O)c1c(C)c(C)nn1C (stereo not given)
Resp: 119 °C

Req: Hello, please tell me recorded melting point for this one: COc1ccccc1CNc1ccc2cc(Nc3nccc(C(F)(F)F)n3)ccc2n1
Resp: 114 °C

Next:
Req: Input C#CCc1c(C)nc2c(NCc3c(C)cccc3NC(=O)OC)cccn12 , output reported melting point.
Resp: 149 to 150 °C

Req: Determine from records and report melting point for COC(=N)c1nn(-c2c(Cl)cc(C(F)(F)F)cc2Cl)c(N)c1S(C)=O (stereo not given)
Resp: 179 to 180 °C

Req: Fill in reported melting point for this entry: CCOc1c(C)c(NC(=O)CC(C)(C)C)c(C)c2c1OCC2c1ccc(C(C)C)cc1 (stereo not given)
Resp: 174 to 175 °C

Req: Using known records, supply melting point for CC(C)(C)NC(=O)C(C)(C)C
Resp: 116 to 118 °C

Req: Given the compound CCCOc1c(C2CCN(CCCCNC(=O)c3ccc(-c4ccc(C(F)(F)F)cc4)cc3)CC2)ccc2ccccc12 , write its reported melting point.
Resp: 191 to 192 °C

Req: Fill in melting point for record O=COCc1c(Cl)ccc2cc(Cl)cnc12
Resp: 146 °C

Req: Specify melting point for Cc1ccc(NC(=O)c2ccc(CN3CCN(C)CC3)c(C(F)(F)F)c2)cc1-c1ccc2ccncc2c1 and stop.
Resp: 153 to 154 °C

Req: Provide measured melting point value, entry: COC(=O)/C=C/n1cnc2c(C(C)C)cc(C(C)C)cc2c1=O
Resp: 102 to 103 °C

Req: Answer with the recorded melting point of CC(C(=O)O)n1nnc2ccc(Oc3nn(C)c(C(F)(F)F)c3Cl)cc21 (stereo not given) only.
Resp: 209 to 211 °C

Req: Return value of melting point for input CCc1c(-c2ccc(O)cc2)c2cc(COCCN(C)C)c3cccc1n32 , no commentary.
Resp: 141 to 143 °C

Req: For the compound COc1ccc(CSc2nnc(-c3ccc4ncccc4c3)o2)cc1C(F)(F)F , give its reported melting point.
Resp: 130 to 131 °C

Req: Please give the documented melting point of CCC(=O)c1ccc(CCNS(=O)(=O)c2ccccc2)cc1
Resp: 116 °C

Req: Kindly indicate its recorded melting point. Item: CCOC(=O)C(CCCCCc1ccc(Cl)cc1)NS(C)(=O)=O (stereo not given)
Resp: 60 to 62 °C

Req: Supply recorded melting point for COC(=O)C1=C(C)NC(C)=C(C(=O)OC)C1c1ccc(OC)c(OC)c1 here.
Resp: 154 to 155 °C

Req: Give melting point for the following compound: CS(=O)(=O)c1n[nH]c(NCCCCOc2cccc(CN3CCCCC3)c2)n1
Resp: 79 to 81 °C

Req: Supply reported melting point belonging to this compound: CC(=O)Nc1cc2c(cc1[N+](=O)[O-])OC(C)(C)[C@@H](Br)[C@@H]2O (relative stereo)
Resp: 198 to 200 °C

Req: Specify reported melting point for the compound shown: O=C(Nc1nccs1)c1nc(-c2cccc3ccccc23)[nH]c1-c1ccc(CO)cc1
Resp: 226 to 228 °C

Req: Identify the reported melting point for the following entry. Cc1onc(C(C)(O)c2ccccc2)c1NC(=O)CCl (stereo not given)
Resp: 130 to 132 °C

Req: Given NC(=O)CNc1ncccc1[N+](=O)[O-] , respond with its melting point.
Resp: 250 to 251 °C

Req: // Input: Cn1c2cc3ccccc3nc2c2c(Cl)cccc21 . Output its melting point only.
Resp: 228 to 230 °C

Req: Provide melting point value for the following compound: CC(=O)NC(C)(C)Cc1ccc(N(C)C)cc1
Resp: 156 to 157 °C

Req: Read the entry N#Cc1ccc2cc(CCc3cc4ccc(C#N)cc4o3)oc2c1 and write its reported melting point.
Resp: 266 to 267 °C

###

Entries annotated with measured melting point

Req: Specify measured melting point for O=S(=O)(c1ccc(Cl)cc1)C(c1cc(F)ccc1F)c1cc(NCc2ccncc2)ncc1Cl (centres undefined) .
Resp: 141 to 142 °C

Req: Hello, please tell me recorded melting point for this one: COc1ccc(C(=O)Nc2ccccc2)cc1NCc1cc(F)cc(F)c1
Resp: 175 to 177 °C

Req: Tell me its melting point given Cn1c(=O)cc(-c2cccc(Cl)c2)c2cc(Br)ccc21 as the entry.
Resp: 182 °C

Req: Using known records, supply melting point for CN1C(=O)c2ccccc2CC1c1ccc(C(C)(C)C)cc1 (centres undefined)
Resp: 116 to 117 °C

Req: For CCn1cc(C(=O)O)c(=O)c2cc(F)c(N3CCN(c4ncccn4)C(C)C3)c(OC(F)F)c21 (centres undefined) , write its melting point.
Resp: 219 to 221 °C

Req: Determine its reported melting point: O=CC(=C(c1ccc(F)cc1)c1ccc(F)cc1)n1cnnn1
Resp: 161 °C

Req: Respond only with melting point recorded for Nc1cccnc1Nc1cccc(-c2cccnc2)c1
Resp: 159 to 160 °C

Req: Let me know recorded melting point for O=c1ccc(C(F)(F)F)cn1Cc1c(Cl)cccc1Cl , thanks.
Resp: 74 to 76 °C

Req: State its melting point for this molecule: OC1CSC(Oc2ccncc2)C(O)C1O (centres undefined)
Resp: 165 to 168 °C

Req: Let me know recorded melting point for Fc1ccc(-c2cc(N3CCN(C4CC4)CC3)nc3c2CCCCCC3)cc1 , thanks.
Resp: 125 to 128 °C

Req: // Input: Cc1nc(N2C(=O)N(CCc3ccc(F)cc3)CC2O)sc1C(=O)NCc1cccnc1 (centres undefined) . Output its melting point only.
Resp: 182 to 184 °C

Req: Give the value of melting point reported for the following: O=C(O)CCCc1nc(NCc2ccc3c(c2)OCO3)c2cc(Cl)sc2n1
Resp: 112 °C

Req: Using known records, supply melting point for CC1=CC(=O)N(c2cc(NS(=O)(=O)c3cccc4c(N(C)C)cccc34)cc(N3C(=O)C=C(C)C3=O)c2)C1=O
Resp: 230 °C

Req: Return value of melting point for input COc1ccc2c3c(c(Cl)nc2c1)C(=O)c1ccccc1-3 , no commentary.
Resp: 261 to 266 °C

Req: Give the measured melting point for C[C@H]1N(C(=O)c2ccc(C(F)(F)F)cc2F)CC(=O)O[C@@]1(Cn1cncn1)c1ccc(F)cc1F (relative stereo)
Resp: 191 to 192 °C

Req: Identify the reported melting point for the following entry. OCc1cn(-c2cc(F)cc(Br)c2)cn1
Resp: 134 to 138 °C

Req: Give reported melting point value for CN(C)CCn1c2ccccc2c(=NN=C2NCCS2)c2ccccc21
Resp: 192 to 194 °C

###

REPORTED_METRIC: melting point

Answered examples (5):
Req: Recall and state the measured melting point for CCc1cc(C#N)cc2c(NCc3ccc(OC)c(Cl)c3)c(CO)cnc12 .
Resp: 188 to 189 °C

Req: For the compound CC(O)Cn1cc(C2=C(c3cn(CC(C)O)c4ccccc34)C(=O)NC2=O)c2ccccc21 (centres undefined) , give its measured melting point value.
Resp: 133 to 135 °C

Req: Retrieve melting point measured for Nc1cccc(CC(=O)O)c1 and print it.
Resp: 116 to 121 °C

Req: Given CC1(C)COC(=O)N1c1nc(-c2ccc(Cl)c(Cl)c2)cs1 , respond with its melting point.
Resp: 134 to 137 °C

Req: Fill in reported melting point for this entry: CCC(C)n1ncn(-c2ccc(N3CCN(c4ccc(OCC(O)(Cn5cncn5)c5ccc(Cl)cc5Cl)cc4)CC3)nc2)c1=O (centres undefined)
Resp: 84 to 87 °C

Now take the following compound into account.
Req: Read off the recorded melting point for CC(OC(=O)Nc1ccccc1)c1ccccc1[N+](=O)[O-] (centres undefined)
Resp: 74 to 75 °C
